Molecular target: Sodium-dependent serotonin transporter (Rattus norvegicus)
Sequence (P31652 whole entry): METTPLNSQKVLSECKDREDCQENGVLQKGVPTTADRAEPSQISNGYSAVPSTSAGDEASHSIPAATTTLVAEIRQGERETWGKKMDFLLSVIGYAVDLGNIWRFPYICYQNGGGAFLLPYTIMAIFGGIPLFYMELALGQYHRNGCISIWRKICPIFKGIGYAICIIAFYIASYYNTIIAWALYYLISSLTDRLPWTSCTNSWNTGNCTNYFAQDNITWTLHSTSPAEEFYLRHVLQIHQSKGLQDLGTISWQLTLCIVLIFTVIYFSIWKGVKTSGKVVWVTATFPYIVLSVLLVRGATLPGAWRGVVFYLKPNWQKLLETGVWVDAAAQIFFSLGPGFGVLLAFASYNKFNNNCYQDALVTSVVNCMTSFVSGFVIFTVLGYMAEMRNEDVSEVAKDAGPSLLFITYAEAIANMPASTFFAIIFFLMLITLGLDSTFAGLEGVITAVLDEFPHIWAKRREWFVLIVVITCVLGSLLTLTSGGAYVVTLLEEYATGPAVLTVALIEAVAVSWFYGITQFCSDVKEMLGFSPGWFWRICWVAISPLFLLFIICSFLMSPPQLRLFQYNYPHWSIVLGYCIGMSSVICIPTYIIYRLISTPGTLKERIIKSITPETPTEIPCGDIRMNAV
Assay: Binding affinity towards Serotonin transporter from rat cortex measured using [3H]paroxetine
Details: read-out: Ki
measure_name: pKi
Please note pKi is a logarithmic value: minus log10 of concentration in mol/L. Answer with that number alone.

The measured pKi associated with O/N=C(\CCN1CCN(c2ccc(Cl)cc2)CC1)c1ccccc1 reads 5.30

Note to self: pKi recorded for FC(F)(F)c1ccc(OC(CCN2CCN(c3ncccn3)CC2)c2ccccc2)cc1 (stereo unspecified) was 5.80

Noted for COc1ccccc1N1CCN(CC/C(=N\O)c2ccsc2)CC1 : its pKi reads 6.02

The molecule identified as COc1ccccc1N1CCN(CCC(O)c2ccc([N+](=O)[O-])cc2)CC1 (stereo unspecified) registered its pKi at 5.60

Notebook: COc1ccccc1N1CCN(CCC(=O)c2ccsc2)CC1 , pKi read as 6.95

---

Target: 5-hydroxytryptamine receptor 3A (Rattus norvegicus, UniProt P35563)
Sequence (P35563 whole entry): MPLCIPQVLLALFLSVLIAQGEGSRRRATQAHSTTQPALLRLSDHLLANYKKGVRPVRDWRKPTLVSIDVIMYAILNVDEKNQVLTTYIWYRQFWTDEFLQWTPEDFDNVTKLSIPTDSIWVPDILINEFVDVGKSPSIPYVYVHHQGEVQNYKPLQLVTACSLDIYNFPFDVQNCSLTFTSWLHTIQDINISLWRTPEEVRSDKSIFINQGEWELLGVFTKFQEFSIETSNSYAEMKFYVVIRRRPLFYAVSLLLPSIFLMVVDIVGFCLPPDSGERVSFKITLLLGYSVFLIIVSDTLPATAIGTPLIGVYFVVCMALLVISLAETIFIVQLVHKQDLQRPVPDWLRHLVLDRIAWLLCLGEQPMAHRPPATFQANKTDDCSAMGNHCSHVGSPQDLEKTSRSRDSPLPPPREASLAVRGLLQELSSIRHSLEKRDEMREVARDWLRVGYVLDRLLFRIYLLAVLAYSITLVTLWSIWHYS
Assay: Affinity at 5-hydroxytryptamine 3 receptor (For granisetron = Ki (nM)=0.3+/-0.01)
pKi: −log10 of the molar value.
measure_name: pKi

Reported pKi of COc1ccccc1N1CCN(CCC(=O)c2csc3ccccc23)CC1 : < 5.30

---

Target: D(2) dopamine receptor (Rattus norvegicus)
Sequence (P61169 whole entry): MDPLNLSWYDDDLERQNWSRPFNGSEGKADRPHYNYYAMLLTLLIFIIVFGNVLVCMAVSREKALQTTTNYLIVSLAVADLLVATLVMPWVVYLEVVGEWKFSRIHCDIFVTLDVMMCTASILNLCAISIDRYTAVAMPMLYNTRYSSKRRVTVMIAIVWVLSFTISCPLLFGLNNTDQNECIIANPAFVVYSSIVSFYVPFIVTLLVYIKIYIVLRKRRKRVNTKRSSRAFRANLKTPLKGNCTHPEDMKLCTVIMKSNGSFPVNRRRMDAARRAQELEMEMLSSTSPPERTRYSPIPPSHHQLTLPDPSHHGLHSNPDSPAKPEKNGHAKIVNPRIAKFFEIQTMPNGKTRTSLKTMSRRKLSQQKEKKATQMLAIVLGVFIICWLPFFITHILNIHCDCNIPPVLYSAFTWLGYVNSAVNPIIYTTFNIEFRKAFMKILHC
Assay: Affinity at dopamine D2 receptor, (For haloperidol Ki(nM)= 1.5+/-1.2)
measure_name: Ki (nM)
State just the number; it will be interpreted in nM.

// field: Ki; key: COc1ccccc1N1CCN(CCC(=O)c2csc3ccccc23)CC1 ; value = 500

---

Please respond with reported Ki for every item in the list.
Target: 5-hydroxytryptamine receptor 1A (Rattus norvegicus, UniProt P19327)
Sequence (P19327 whole entry): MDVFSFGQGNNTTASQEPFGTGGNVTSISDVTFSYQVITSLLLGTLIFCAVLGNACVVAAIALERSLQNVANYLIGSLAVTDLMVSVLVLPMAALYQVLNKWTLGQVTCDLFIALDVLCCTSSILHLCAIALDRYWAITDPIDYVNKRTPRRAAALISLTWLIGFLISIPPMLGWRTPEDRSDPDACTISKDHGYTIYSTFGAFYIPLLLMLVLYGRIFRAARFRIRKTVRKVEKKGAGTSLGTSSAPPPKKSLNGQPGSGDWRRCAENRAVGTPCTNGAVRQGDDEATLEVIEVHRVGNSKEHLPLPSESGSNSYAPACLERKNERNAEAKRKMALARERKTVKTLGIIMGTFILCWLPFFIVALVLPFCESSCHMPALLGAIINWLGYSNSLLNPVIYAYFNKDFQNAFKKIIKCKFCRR
Assay: Binding affinity to 5-hydroxytryptamine 1A receptor (5-HT 1A receptor, serotonin receptor) from rat cortex using [3H]8-OH-DPAT as radioligand
Number first, unit second: that is the form wanted.

Entry COc1ccccc1N1CCN(CC/C(=N\O)c2ccccc2)CC1 : Ki on 5-hydroxytryptamine receptor 1A (Rattus norvegicus, UniProt P19327) = 0.0175 µM

Ki for 5-hydroxytryptamine receptor 1A (Rattus norvegicus, UniProt P19327) with input OC(CCN1CCN(c2ncccn2)CC1)c1ccccc1 (configuration not stated) equals 0.375 µM

Summary line: Cc1cc(C(=O)CCN2CCN(c3ccccc3O)CC2)c(C)s1 , 5-hydroxytryptamine receptor 1A (Rattus norvegicus, UniProt P19327), reported Ki = 0.0075 µM

Measured on 5-hydroxytryptamine receptor 1A (Rattus norvegicus, UniProt P19327), COc1ccccc1N1CCN(CCC(Oc2ccc3c(c2)OCO3)c2ccsc2)CC1 (configuration not stated) has a documented Ki of 0.055 µM

Simply: COc1cc(Cl)ccc1N1CCN(CCC(O)c2csc3ccccc23)CC1 (configuration not stated) , 5-hydroxytryptamine receptor 1A (Rattus norvegicus, UniProt P19327), Ki = 0.361 µM

The molecule COc1ccccc1N1CCN(CCC(O)c2ccc(-c3ccccc3)cc2)CC1 (configuration not stated) , when measured on 5-hydroxytryptamine receptor 1A (Rattus norvegicus, UniProt P19327), yielded Ki of 0.85 µM

Readout Ki for COc1ccccc1N1CCN(CCC(=O)c2csc3ccccc23)CC1 , test system 5-hydroxytryptamine receptor 1A (Rattus norvegicus, UniProt P19327), was 0.044 µM

Bench note, 5-hydroxytryptamine receptor 1A (Rattus norvegicus, UniProt P19327): entry Cc1cc(C(O)CCN2CCN(c3ccccc3O)CC2)c(C)s1 (configuration not stated) , its Ki = 0.09 µM

The measured Ki that OC(CCN1CCN(c2ccccn2)CC1)c1ccccc1 (configuration not stated) showed for 5-hydroxytryptamine receptor 1A (Rattus norvegicus, UniProt P19327) is 0.155 µM

Tested system 5-hydroxytryptamine receptor 1A (Rattus norvegicus, UniProt P19327); Ki recorded for Oc1ccccc1N1CCN(CCC(O)c2ccc3ccccc3c2)CC1 (configuration not stated) was 0.19 µM

GET /values?item= COc1ccccc1N1CCN(CCC(O)c2ccc3ccccc3c2)CC1 (configuration not stated) &system= 5-hydroxytryptamine receptor 1A (Rattus norvegicus, UniProt P19327) returns Ki: 0.42 µM

Summary: COc1ccccc1N1CCN(CCC(O)c2cc(C)sc2C)CC1 (configuration not stated) , 5-hydroxytryptamine receptor 1A (Rattus norvegicus, UniProt P19327), Ki = 0.012 µM

---

Target: 5-hydroxytryptamine receptor 1D (Homo sapiens, UniProt P28221)
Sequence (P28221 whole entry): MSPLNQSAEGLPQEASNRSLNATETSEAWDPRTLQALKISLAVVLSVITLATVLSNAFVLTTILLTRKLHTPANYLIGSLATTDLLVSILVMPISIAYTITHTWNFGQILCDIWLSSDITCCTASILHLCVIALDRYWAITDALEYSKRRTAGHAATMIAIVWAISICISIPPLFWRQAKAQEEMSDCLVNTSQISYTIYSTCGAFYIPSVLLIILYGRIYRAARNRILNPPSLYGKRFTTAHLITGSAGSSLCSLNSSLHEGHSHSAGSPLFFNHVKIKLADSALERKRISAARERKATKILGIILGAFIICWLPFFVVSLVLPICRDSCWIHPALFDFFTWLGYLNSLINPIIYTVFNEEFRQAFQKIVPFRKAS
measure_name: pKi
pKi field: float, defined as -log10 of concentration (mol/L).

# compound COc1ccccc1N1CCN(CCC(=O)c2csc3ccccc23)CC1 ; its pKi = 5.30

---

System: Mus musculus
Assay: Effect on immobility time in the forced swimming test (FST) in mice at 10 mg/kg dose
Format: functional
Under this convention, true denotes Immobility time strictly below 100 s and false denotes Immobility time at or above 100 s.

Prompt: Is Immobility time strictly under 100 s for the entry COc1ccccc1N1CCN(CCC(=O)c2ccsc2)CC1 ?
Response: true

Prompt: Is 100 s strictly greater than the compound's reported Immobility time? compound: COc1ccccc1N1CCN(CC/C(=N\O)c2ccc(C)s2)CC1
Response: false

Prompt: For this compound, is Immobility time lower than 100 s? COc1ccccc1N1CCN(CCC(Oc2cccc3ccccc23)c2ccsc2)CC1 (centres undefined)
Response: true

Prompt: Given the entry COc1ccccc1N1CCN(CCC(O)c2csc3ccccc23)CC1 (centres undefined) , would its reported Immobility time be below 100 s?
Response: false

Prompt: Input Oc1ccccc1N1CCN(CCC(O)c2csc3ccccc23)CC1 (centres undefined) ; condition: Immobility time strictly below 100 s. Does it hold?
Response: false

Prompt: Criterion: Immobility time strictly below 100 s. Is it met by Oc1ccccc1N1CCN(CCC(O)c2ccc3ccccc3c2)CC1 (centres undefined) ?
Response: true

Prompt: Is Immobility time strictly under 100 s for the entry COc1ccccc1N1CCN(CCC(=O)c2csc3ccccc23)CC1 ?
Response: true

---

Target: 5-hydroxytryptamine receptor 1A (Rattus norvegicus)
Assay: Binding affinity to 5-hydroxytryptamine 1A receptor (5-HT 1A receptor, serotonin receptor) from rat cortex using [3H]8-OH-DPAT as radioligand
Conditions: read-out: Ki
pKi: −log10 of the molar value.
If the reported pKi equals or exceeds 6, assign label 1. If not, assign label 0.

Prompt: Quick check: does COc1ccc(N2CCN(CCC(=O)c3ccccc3)CC2)cc1 have pKi greater than or equal to 6?
Response: label 0

Prompt: Answer whether pKi of COc1ccccc1N1CCN(CCC(=O)c2cccs2)CC1 is greater than or equal to 6.
Response: label 1

Prompt: Is it the case that COc1cc(Cl)ccc1N1CCN(CCC(=O)c2csc3ccccc23)CC1 has pKi reaching or exceeding 6?
Response: label 1

Prompt: // inclusive: pKi at least 6? input: Oc1ccccc1N1CCN(CCC(O)c2csc3ccccc23)CC1 (stereo unspecified)
Response: label 1

Prompt: Check if pKi >= 6 (inclusive). Item: COc1cc(F)ccc1N1CCN(CCC(O)c2csc3ccccc23)CC1 (stereo unspecified)
Response: label 1

---

Molecular target: 5-hydroxytryptamine receptor 1A (Rattus norvegicus)
Experiment: Binding affinity to 5-hydroxytryptamine 1A receptor (5-HT 1A receptor, serotonin receptor) from rat cortex using [3H]8-OH-DPAT as radioligand
Settings: read-out: Ki
Would you mind telling me the reported pKi of each entry?
Hey, just a heads up that pKi is the negative log base 10 of the concentration in molar.

Sample COc1ccccc1N1CCN(CCC(Oc2cccc3ccccc23)c2ccsc2)CC1 (stereo not given) ; pKi observed: 6.74

The reported pKi of the compound COc1ccccc1N1CCN(CC/C(=N\O)c2cc(C)sc2C)CC1 was 7.07

Entry COc1ccc(C(CCN2CCN(c3ccccc3OC)CC2)Oc2ccc(C(F)(F)F)cc2)cc1 (stereo not given) — recorded pKi = 6.00

Notebook: COc1ccccc1N1CCN(CCC(=O)c2ccc(C)s2)CC1 , pKi read as 7.76

Data point: COc1ccccc1N1CCN(CCC(=O)c2ccc([N+](=O)[O-])cc2)CC1 ; pKi = 7.30

---

Please go through the items and note down their No. of escape failures.
Test system: Rattus norvegicus
Assay: Effect on helpless behavior in rats and the number of escape failures was determined in shuttle-box session-2 (SB-2) at 1 mg/kg dose
Format: functional
Give a plain numeric answer without units written out.

No. of escape failures reading for COc1ccccc1N1CCN(CCC(Oc2cccc3ccccc23)c2ccsc2)CC1 (centres undefined) : 1.3

Entry Fc1ccc([C@@H]2CCNC[C@H]2COc2ccc3c(c2)OCO3)cc1 [PAROXETINE] ; No. of escape failures = 3

// field: No. of escape failures; key: COc1ccccc1N1CCN(CCC(O)c2csc3ccccc23)CC1 (centres undefined) ; value = 2.3

Hello, the source for this data is ChEMBL document CHEMBL1134339, in case you need it.
